target: Cat L (UniProt P07711); experiment: Cathepsin enzyme inhibition assay (fluorogenic peptide substrate Z-Val-Val-Arg-AMC), Cathepsin L; format: biochemical, human and mouse; details: enzyme 1 nM, substrate 20 μM, pH 6.5; read-out: CatL IC50
Listing of recorded log10 IC50 by entry.
Lab note - IC50 converted to log10 from values in µM.

Example entries and their recorded answers appear below.
N#CC1(NC(=O)[C@@H]2C[C@@H](S(=O)(=O)c3ccc(N4CCC(C(F)(F)F)CC4)cc3Cl)CN2C(=O)C2(C(F)(F)F)CC2)CC1 : 0.64
CC(C)(C)OC(=O)N1CCC(C(=O)N2C[C@H](S(=O)(=O)c3ccccc3Cl)C[C@H]2C(=O)NC2(C#N)CC2)(c2ccc(Cl)cc2)CC1 : -0.02
N#CC1(NC(=O)[C@H]2C[C@H](S(=O)(=O)c3ccc(OCC(F)(F)F)cc3Cl)CN2C(=O)C2(C(F)(F)F)CC2)CC1 : 1.67
N#CC1(NC(=O)[C@@H]2C[C@@H](S(=O)(=O)c3ccc(OCC(F)(F)F)cc3Cl)CN2C(=O)C2(c3ccc4ccccc4c3)CC2)CC1 : -1.29
CC1(C(=O)N2C[C@H](S(=O)(=O)c3ccc(C4CC4)cc3C(F)(F)F)C[C@H]2C(=O)NC2(C#N)CC2)CC1 : 1.93
CC(C)CC(=O)N1C[C@H](S(=O)(=O)c2ccc(OCC(F)(F)F)cc2Cl)C[C@H]1C(=O)NC1(C#N)CC1 : 1.33
COCCN1CCN(c2ccc(S(=O)(=O)[C@@H]3C[C@@H](C(=O)NC4(C#N)CC4)N(C(=O)C4(c5ccc(Cl)nc5)CC4)C3)c(Cl)c2)CC1 : -1.35

Kindly consider the entry below.
# input Can you share its log10 IC50? I mean this compound: `Cc1cccc(-n2nc(C)cc2N2C[C@H](S(=O)(=O)c3ccccc3C(F)(F)F)C[C@H]2C(=O)NC2(C#N)CC2)c1`
# output 0.97

###

Listing of recorded pIC50 by entry.
Target: Cathepsin S (UniProt P25774)
Assay: Cathepsin enzyme inhibition assay (fluorogenic peptide substrate Z-Val-Val-Arg-AMC), Cathepsin S
Format: biochemical, human and mouse
Conditions: enzyme 1 nM, substrate 20 μM, pH 6.5; read-out: CatS IC50
Procedure: Cathepsin Enzyme Inhibition Assay Enzyme activity is measured by observing the increase in fluorescence intensity caused by cleavage of a peptide substrate containing a fluorophore whose emission is quenched in the intact peptide. Assay buffer: 100 mM potassium phosphate pH 6.5, EDTA-Na 5 mM, Triton X-100 0.001%, DDT 5 mM. […] Enzyme is added to the substance dilutions in 96-well microtitre plates and the reaction is started with substrate. […] IC50 are calculated by standard methods. […]
pIC50 here: minus log base 10 of the concentration, concentration in moles per litre.

Example entries and their recorded answers appear below.
CC(C(=O)N1C[C@H](S(=O)(=O)c2ccccc2Cl)C[C@H]1C(=O)NC1(C#N)CC1)c1ccc(Cl)cc1 (stereo partly shown) [Example 431] : 9.06
CC(Oc1ccc(S(=O)(=O)[C@@H]2C[C@@H](C(=O)NC3(C#N)CC3)N(C=O)C2)c(Cl)c1)C(F)(F)F (stereo partly shown) : 8.77
Cc1cc(N2C[C@H](S(=O)(=O)c3ccc(N4CC(F)(F)C4)cc3C(F)(F)F)C[C@H]2C(=O)NC2(C#N)CC2)n(C2CCC2)n1 : 9.67
N#CC1(NC(=O)[C@@H]2C[C@@H](S(=O)(=O)c3ccc(F)cc3Cl)CN2C(=O)C2(c3ccc(Cl)nc3)CC2)CC1 : 9.68
Cc1cc(N2C[C@H](S(=O)(=O)c3ccccc3C(F)(F)F)C[C@@H]2C(=O)NC2(C#N)CC2)n(C2CCCCC2)n1 : 7.09
N#CC1(NC(=O)[C@@H]2C[C@@H](S(=O)(=O)c3ccc(OCC(F)(F)F)cc3Cl)CN2C(=O)Cc2ccc(Cl)cc2)CC1 : 8.50

# input Can you share its pIC50? I mean this molecule: `Cc1cc(N2C[C@H](S(=O)(=O)c3ccccc3Cl)C[C@H]2C(=O)NC2(C#N)CC2)n(C2CCC2)n1`
# output 9.00

# input Can you share its pIC50? I mean this molecule: `N#CC1(NC(=O)[C@@H]2C[C@@H](S(=O)(=O)c3ccccc3Cl)CN2C(=O)C2(c3ccc(C(F)(F)F)cc3)CC2)CC1`
# output 9.29
